Test system: 786-0 renal
Assay: NCI tumour cell line growth inhibition, 48 h
quantity.name: TGI

These solved cases illustrate the format of a correct answer.
Cc1[nH]c(=O)n2c(C)nnc2c1C(=O)Nc1cc(Cl)cc(Cl)c1: > 100 µM
COC(=O)CN1SC2(SC13C(C)(C)C(=O)C3(C)C)C(C)(C)C(=O)C2(C)C: > 100 µM

Let us examine a further case.
For record CC(=O)C(CN(Cc1ccccc1)Cc1ccccc1)C(c1ccccc1)c1c(O)c2ccccc2oc1=O (stereo not drawn) the listed TGI is > 100 µM

* * *

Test system: KM12 colon
Assay: NCI tumour cell line growth inhibition, 48 h
In this section, each of the compounds is paired with its reported TGI.

CC(C)(C)c1ccc(-n2c3nc(=O)n(-c4ccccc4CO)c(=O)c-3cc3ccccc32)cc1: > 100 µM
COC(=O)NN=C1C(C)(C)C(=O)C1(C)C: > 100 µM
Cc1ccc(N2CCC3(CC2)OCCO3)cc1: > 100 µM
COC(=O)c1c2c(cc3c1CC1(Cc4ccc(C(C)=O)cc4C1)C3)CCC2 (centres undefined): > 100 µM
Cc1ccc2c(c1)CC1(Cc3c(C)cccc3C1=O)C2=O (centres undefined): > 100 µM
CCN1Cc2c(ccc(F)c2C#N)O[C@@H](C)CNC(=O)c2c(N)nn3ccc1nc23: 69.7 µM

The value of TGI recorded for Cc1ccc(C)n1-c1ccccc1C1C=CN(C(=O)OC(C)(C)C)C=C1 when tested on KM12 colon reads 31.2 µM

Reading of TGI for CC1=C(C)C1[N+](=O)[O-] with KM12 colon: > 100 µM

Bench note, KM12 colon: C/C(=N\NC(=S)N1CCN(C)CC1)c1nc2ncccc2[nH]1 , TGI reads > 100 µM
